# system.name: TRPC5 (Homo sapiens, UniProt Q9UL62)
# Construct: expressed in transfected cells; host or cells: HEK 293
# test.summary: TRPC5 automated patch clamp assay (Qpatch), current block after rosiglitazone stimulation
# Assay type: cell-based
# test.settings: Table 4; HEK293 cells overexpressing TRPC5; rosiglitazone stimulation; 100 mV; read-out: TRPC5_QP_ XC50_100
pIC50: −log10 of the molar value.
Parameter pIC50: see the listing below.

C[C@@H]1CN(CC(=O)N(C)C)CCN1c1cn[nH]c(=O)c1Cl :: 3.30 to 5.00

Problem: Report value: pIC50, system: TRPC5 (Homo sapiens, UniProt Q9UL62), compound: Cc1ccccc1CN1CCN(c2cn[nH]c(=O)c2C(C)C)CC1=O
Result: 5.30 to 6.00

Problem: Give pIC50 only, for Cc1ccccc1CN1CCN(c2cn[nH]c(=O)c2C2CCOCC2)CC1=O , using TRPC5 (Homo sapiens, UniProt Q9UL62) data.
Result: 3.30 to 5.00

Problem: Under TRPC5 (Homo sapiens, UniProt Q9UL62), report pIC50 for CCN(CC)C(=O)CN1CCN(c2cn[nH]c(=O)c2Cl)CC1
Result: 3.30 to 5.00

Problem: For TRPC5 (Homo sapiens, UniProt Q9UL62), give the measured pIC50 of the entry Cc1cccnc1CN1CCN(c2cn[nH]c(=O)c2Cl)CC1
Result: 5.00 to 5.30

====

# system.name: TRPC5 (Homo sapiens, UniProt Q9UL62)
# Construct: expressed in transfected cells; host or cells: HEK 293
# test.summary: TRPC5 fluorescence assay, membrane potential dye, flexstation (FLEX)
# Assay type: cell-based
# test.settings: Table 6; HEK293 cells overexpressing TRPC5
recorded.metric: IC50

Problem: Enter IC50 (test system TRPC5 (Homo sapiens, UniProt Q9UL62)) for N#Cc1c(N2CCc3c(ncn3Cc3ccccc3C(F)(F)F)C2)cn[nH]c1=O [drawing 873]
Result: 0.01 to 1000 nM

Problem: Provide measured IC50 on TRPC5 (Homo sapiens, UniProt Q9UL62) for O=c1[nH]ncc(N2CCc3c(ncn3Cc3ccccc3C(F)(F)F)C2)c1C1CC1 please.
Result: 5000 to 10000 nM

Problem: State measured IC50 of the molecule O=c1[nH]ncc(N2CCc3nn(Cc4ccc(F)cc4C(F)(F)F)cc3C2)c1Cl with TRPC5 (Homo sapiens, UniProt Q9UL62).
Result: 0.01 to 1000 nM

Problem: State measured IC50 of the molecule CCc1cccnc1Cn1cnc2c1CN(c1cn[nH]c(=O)c1Cl)CC2 with TRPC5 (Homo sapiens, UniProt Q9UL62).
Result: 5000 to 10000 nM

Problem: Retrieve IC50 on TRPC5 (Homo sapiens, UniProt Q9UL62); query C[C@H](c1ccccc1)n1cnc2c1CCN(c1cn[nH]c(=O)c1Cl)C2 [drawing 842]
Result: 0.01 to 1000 nM

Problem: Report measured IC50 on TRPC5 (Homo sapiens, UniProt Q9UL62); entry: CCc1ncccc1Cn1cnc2c1CCN(c1cn[nH]c(=O)c1Cl)C2
Result: 0.01 to 1000 nM

Problem: Name the value of IC50 reported for O=c1[nH]ncc(N2CCc3c(nnn3Cc3ccccc3C(F)F)C2)c1Cl when tested on TRPC5 (Homo sapiens, UniProt Q9UL62).
Result: 0.01 to 1000 nM

Problem: Give reported IC50 for Cc1ccccc1-n1cnc2c1CCN(c1cn[nH]c(=O)c1Cl)C2 (TRPC5 (Homo sapiens, UniProt Q9UL62))
Result: 10000 to 500000 nM

Problem: // output IC50; input O=c1[nH]ncc(N2CCc3c(nnn3Cc3ccc(F)cc3C(F)F)C2)c1Cl ; system TRPC5 (Homo sapiens, UniProt Q9UL62)
Result: 0.01 to 1000 nM

====

# system.name: TRPC5 (Homo sapiens, UniProt Q9UL62)
# Construct: expressed in transfected cells; host or cells: HEK 293
# test.summary: TRPC5 automated patch clamp assay (Qpatch), current block after rosiglitazone stimulation
# Type: cell-based
# test.settings: Table 4; HEK293 cells overexpressing TRPC5; rosiglitazone stimulation; 100 mV; read-out: TRPC5_QP_ XC50_100
Let's look at some compounds and their measured IC50.

O=c1[nH]ncc(N2CCN(Cc3cccc4cn[nH]c34)CC2)c1Cl :: 10 to 500 µM
COc1n[nH]c(=O)cc1N1CCN(Cc2ccc(F)cc2C)CC1 :: 10 to 500 µM
CC(C)=Cc1c(N2CCN(Cc3ccccc3C)C(=O)C2)cn[nH]c1=O :: 10 to 500 µM
Cc1ccccc1CN1CCN(c2cn[nH]c(=O)c2CCC(C)C)CC1=O [drawing 700] :: 10 to 500 µM

Now, please, on to the next compound.
Problem: # return recorded IC50 for input Cc1ccncc1CN1CCN(c2cn[nH]c(=O)c2Cl)CC1
Result: 5 to 10 µM

====

Quick reference for pIC50 among some compounds
# system.name: TRPC5 (Homo sapiens, UniProt Q9UL62)
# Construct: expressed in transfected cells; host or cells: HEK 293
# Sequence (Q9UL62 1-973): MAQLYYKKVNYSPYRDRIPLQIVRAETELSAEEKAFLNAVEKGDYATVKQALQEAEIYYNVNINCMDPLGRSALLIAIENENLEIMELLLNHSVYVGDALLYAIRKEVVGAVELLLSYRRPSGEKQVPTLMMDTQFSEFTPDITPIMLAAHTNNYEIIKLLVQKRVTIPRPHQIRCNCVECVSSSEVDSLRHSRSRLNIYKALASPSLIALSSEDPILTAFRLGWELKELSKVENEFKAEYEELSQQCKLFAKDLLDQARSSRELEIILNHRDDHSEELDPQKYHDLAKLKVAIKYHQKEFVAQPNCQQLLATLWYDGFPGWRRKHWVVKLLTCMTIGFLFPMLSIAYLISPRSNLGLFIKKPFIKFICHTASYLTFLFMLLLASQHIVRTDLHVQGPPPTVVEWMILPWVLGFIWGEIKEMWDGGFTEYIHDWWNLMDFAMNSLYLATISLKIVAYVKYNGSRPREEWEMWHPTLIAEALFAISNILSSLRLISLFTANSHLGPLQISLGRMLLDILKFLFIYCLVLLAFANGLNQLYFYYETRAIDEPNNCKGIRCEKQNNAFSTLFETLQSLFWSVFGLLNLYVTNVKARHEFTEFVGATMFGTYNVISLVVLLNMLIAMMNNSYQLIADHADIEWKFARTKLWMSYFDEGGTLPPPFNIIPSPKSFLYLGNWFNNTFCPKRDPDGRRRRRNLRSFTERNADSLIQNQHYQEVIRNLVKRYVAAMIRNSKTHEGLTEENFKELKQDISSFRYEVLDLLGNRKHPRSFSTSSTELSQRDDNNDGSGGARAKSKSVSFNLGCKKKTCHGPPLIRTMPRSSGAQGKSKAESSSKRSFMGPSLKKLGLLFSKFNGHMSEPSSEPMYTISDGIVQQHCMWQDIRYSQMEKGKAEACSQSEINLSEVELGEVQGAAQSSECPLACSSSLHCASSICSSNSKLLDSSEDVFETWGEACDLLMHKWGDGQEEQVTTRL
# test.summary: TRPC5 Fluorescence Assay - FLIPR format (HEK-TREx hTRPC5, Riluzole stimulation)
# Assay type: cell-based
# test.settings: Table 9, read-out: hTRPCS-FLIPR IC50
pIC50: −log10 of the molar value.

Cc1ccccc1CC1(OC(N)=O)CCN(c2cn[nH]c(=O)c2Cl)CC1 :: 5.30 to 6.00
O=c1[nH]ncc(N2CCN(Cc3ccccc3C(F)(F)F)CC2)c1Cl [drawing 1036] :: 5.30 to 6.00
CC[C@@H](c1cccnc1CC(C)C)C1CCN(c2cn[nH]c(=O)c2Cl)CC1 :: 6.00 to 11.00
CCc1ncccc1[C@H](CC)N1CCN(c2cn[nH]c(=O)c2C#N)CC1 :: 5.30 to 6.00

Now for the compound whose pIC50 we want.
Problem: Given the compound CC(F)(F)c1ccccc1CC1(O)CCN(c2cn[nH]c(=O)c2Cl)CC1 , write its reported pIC50.
Result: 6.00 to 11.00

====

This section presents compounds with their documented pIC50 values.
# system.name: TRPC5 (Homo sapiens, UniProt Q9UL62)
# Construct: expressed in transfected cells; host or cells: HEK 293
# test.summary: TRPC5 automated patch clamp assay (Qpatch), current block after rosiglitazone stimulation
# Assay type: cell-based
# test.settings: Table 3; HEK293 cells overexpressing TRPC5; rosiglitazone stimulation; 80 mV; read-out: TRPC5_QP_ XC50_80
pIC50: −log10 of the molar value.

Study these solved cases before continuing.
Cc1ccccc1CN1CCN(c2cn[nH]c(=O)c2N2CCOCC2)CC1=O :: 3.30 to 5.00
Cc1ccccc1CN1CCN(c2cn[nH]c(=O)c2Br)C(C)C1 (stereo not drawn) [drawing 650] :: 3.30 to 5.00
Cc1ccccc1CN1CCN(c2cn[nH]c(=O)c2C#CC2CC2)CC1=O :: 3.30 to 5.00
O=C1CN(c2cn[nH]c(=O)c2Br)CCN1Cc1cccc2ccccc12 [drawing 665] :: 6.00 to 11.00
Cn1nccc1CN1CCN(c2cn[nH]c(=O)c2Br)CC1 :: 5.00 to 5.30

Problem: Identify measured pIC50 associated with O=C1CN(c2cn[nH]c(=O)c2Cl)CCN1Cc1ccc(Cl)cc1F
Result: 5.00 to 5.30

Problem: Using the record for Cc1ccccc1CN1CCN(c2cn[nH]c(=O)c2Cl)CC1=O [drawing 664] , state its measured pIC50.
Result: 6.00 to 11.00

Problem: Specify reported pIC50 for the compound shown: CC(C)(C)CN1CCN(c2cn[nH]c(=O)c2Br)CC1
Result: 3.30 to 5.00

Problem: Specify pIC50 for Cc1ccccc1CN1CCN(c2cn[nH]c(=O)c2Cl)CC1 and stop.
Result: 5.30 to 6.00

Problem: Supply reported pIC50 belonging to this compound: Cc1ccccc1CN1CCC2(C1)CN(c1cn[nH]c(=O)c1Br)C2
Result: 3.30 to 5.00

Problem: Determine its reported pIC50: Cc1ccccc1CN1CC2(C1)CN(c1cn[nH]c(=O)c1Br)C2
Result: 3.30 to 5.00

Problem: Note down pIC50 recorded for Cc1ccccc1CN1CCN(c2cn[nH]c(=O)c2-c2ccccc2)CC1
Result: 5.00 to 5.30

Problem: Look up and state reported pIC50 for O=c1[nH]ncc(N2CCCN(Cc3ccccc3)CC2)c1Br
Result: 3.30 to 5.00
